# Tested on: SNB-75 CNS
# EXPERIMENT: NCI-60 one-dose screen, 48 h
# CONDITION DETAILS: 10 µM unless noted
Compounds without any hit were thinned out: in the full panel of roughly 83,000, 20% have a hit. Calls of active or inactive are those of the source. The calls were made as follows: active = growth percent below 10; inactive = the rest.
# valid calls are active, inactive; nothing else

> print(dat)
                                chem.smiles  target.or.system     label
1  Cc1nc2sc(C(=O)Nc3ccccc3)c(N)c2cc1C(=O)/C=C/c1ccccc1        SNB-75 CNS    active
2  COc1ccc2c(c1)c(-c1nonc1-c1cn(C)c3ccc(OC)cc13)cn2C        SNB-75 CNS  inactive

Query: recorded result category for Cc1cc(C)c(-c2c(O)c(Br)c(-c3c(C)cc(C)c(Br)c3C)c(O)c2Br)c(C)c1Br in this test
Result: inactive

Query: Follow-up entry: c1ccc(CCc2ccccc2-c2cc(-c3ccccc3)on2)cc1
Result: inactive

Query: Follow-up entry: COc1ccc(C2=C/C(=C\c3ccc(Cl)cc3)C(=O)N2/N=C/c2ccc(Cl)cc2)cc1
Result: inactive
